# measurement-protocol: self-splicing fitness, log relative to wild type (ln ratio); higher = more splicing; Tetrahymena group I intron in knt gene, E. coli kanamycin selection, DiMSum; sequences stand for … in CUCUCU…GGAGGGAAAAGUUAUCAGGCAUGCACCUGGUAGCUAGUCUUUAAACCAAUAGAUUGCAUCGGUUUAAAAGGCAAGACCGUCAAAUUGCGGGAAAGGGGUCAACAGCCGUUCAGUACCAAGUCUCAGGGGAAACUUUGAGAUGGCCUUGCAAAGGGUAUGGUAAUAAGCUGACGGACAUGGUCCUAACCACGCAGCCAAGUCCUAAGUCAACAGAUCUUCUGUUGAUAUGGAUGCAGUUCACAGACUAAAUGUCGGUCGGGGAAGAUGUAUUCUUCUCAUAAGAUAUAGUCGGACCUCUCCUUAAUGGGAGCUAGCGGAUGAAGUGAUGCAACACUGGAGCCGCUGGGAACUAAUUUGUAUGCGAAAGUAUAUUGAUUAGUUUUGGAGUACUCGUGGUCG;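 note: selection with 25 µg/mL kanamycin versus none on LB agar overnight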
# measurement-conditions: 30 °C
parameter-measured: self-splicing fitness (ln)

ACUAAGCAAUAUUACGGGUU :: -3.17
AUUAAGCAAUAUUACGCAUC :: -3.36
UCAAAGCAAUAUUACGAUCC :: -3.21
ACCUAGCAAUAUUACGUCGG :: -1.07

query: Item CCCUAGCAAUAUUACGUACC : provide self-splicing fitness (ln)
result: -1.72

query: For GGGGAGCAAUAUUACGUUCU , write its self-splicing fitness (ln).
result: -2.67

query: Look up and state reported self-splicing fitness (ln) for GCAAAGCAAUAUUACGCGUU
result: -1.96

query: Provide only the value of recorded self-splicing fitness (ln) for UCUGAGCAAUAUUACGCCUU
result: -3.06

====

# measurement-protocol: self-splicing fitness, log relative to wild type (ln ratio); higher = more splicing; Tetrahymena group I intron in knt gene, E. coli kanamycin selection, DiMSum; sequences stand for … in CUCUCU…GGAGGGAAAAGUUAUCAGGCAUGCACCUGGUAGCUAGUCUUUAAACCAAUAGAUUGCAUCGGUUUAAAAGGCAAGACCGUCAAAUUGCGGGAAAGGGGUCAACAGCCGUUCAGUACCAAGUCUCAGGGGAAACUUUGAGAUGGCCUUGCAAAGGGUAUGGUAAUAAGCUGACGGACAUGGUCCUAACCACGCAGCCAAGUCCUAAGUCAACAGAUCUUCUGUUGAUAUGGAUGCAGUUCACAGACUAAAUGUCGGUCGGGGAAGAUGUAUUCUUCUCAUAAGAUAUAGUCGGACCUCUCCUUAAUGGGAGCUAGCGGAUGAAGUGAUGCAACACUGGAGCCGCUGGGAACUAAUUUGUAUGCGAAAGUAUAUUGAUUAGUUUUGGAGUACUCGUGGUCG
# measurement-conditions: 37 °C
# class assignment by measured self-splicing fitness (ln): small value: < -2; mid value: ≥ -2 and < -1; large value: ≥ -1

Worked examples follow.
AUAGAGCAAUAUUACGCGUC :: mid value
AGGCAGCAAUAUUACGGUGC :: small value
AGCAAGCAAUAUUACGAAAU :: mid value
AAACAGCAAUAUUACGGGCA :: mid value
CUUUAGCAAUAUUACGGCGG :: large value
UCUUAGCAAUAUUACGACCG :: large value
CCAGAGCAAUAUUACGCUAC :: mid value
GACAAGCAAUAUUACGUUGC :: small value

Consider now this further sequence.
query: Band for AAUGAGCAAUAUUACGGAUA ?
result: mid value
